The values you see were collected from patent US5935932A.

TEST TARGET: bradykinin receptors in Guinea Pig Ileum (Cavia porcellus, UniProt O70526)
Construct: describes the Guinea Pig Ileum assay used to analyze the present compounds; from tissue; host or cells: isolated guinea pig ileum
PROCEDURE TEXT: Guinea Pig Ileum functional assay
Assay type: cell-based
MEASUREMENT CONTEXT: number in parenthesis is pA2, read-out: Ileum, pA2 (I=inhibitor) (converted)
Text: 5. Guinea Pig Ileum functional assay Trautshold, Handbook of Expt. Pharmacol. Vol 25, Springer Verlag pp 53-55 (1970) describes the Guinea Pig Ileum assay used to analyze the present compounds. The Trautshold method was used without changes to the parameters. U.S. Pat. No. 4,693,993, at Column 14, line 10 gives a general description of data analysis for this assay. In this table, I=inhibitor, and numbers in parenthesis are pA2. Agonist activity are given as percent BK activity.
Where a SMILES comes first, the peptide text is derived from it. [ ]: non-standard residue; d: D form. dPhe(F5) = N[C@H](Cc1c(F)c(F)c(F)c(F)c1F)C(=O)O; Igl = N[C@H](C(=O)O)C1Cc2ccccc2C1; Hyp = O=C(O)[C@@H]1C[C@@H](O)CN1
READOUT TYPE: Kb (nM)
Reply with just the number (in nM).

input: bradykinin receptors in Guinea Pig Ileum (Cavia porcellus, UniProt O70526) / Kb / CC(C)C[C@H](NC(=O)[C@@H](Cc1c(F)c(F)c(F)c(F)c1F)NC(=O)[C@H](CO)NC(=O)[C@@H](NC(=O)CNC(=O)[C@@H]1C[C@@H](O)CN1C(=O)[C@@H]1CCCN1C(=O)[C@H](CCCNC(=N)N)NC(=O)[C@H](N)CCCNC(=N)N)C1Cc2ccccc2C1)C(=O)N[C@@H](CCCNC(=N)N)C(=O)O [Compound B10174] (H-[dR]RP[Hyp]G[Igl]S[dPhe(F5)]LR-OH; N-terminus and C-terminus assumed) : value?
output: 6.31

input: bradykinin receptors in Guinea Pig Ileum (Cavia porcellus, UniProt O70526) / Kb / N=C(N)NCCC[C@H](NC(=O)[C@@H]1C[C@@H]2CCCC[C@@H]2N1C(=O)[C@@H](Cc1c(F)c(F)c(F)c(F)c1F)NC(=O)[C@H](CO)NC(=O)[C@@H](NC(=O)CNC(=O)[C@@H]1C[C@@H](O)CN1C(=O)[C@@H]1CCCN1C(=O)[C@H](CCCNC(=N)N)NC(=O)[C@@H](CCCNC(=N)N)NC(=O)C12CC3CC(CC(C3)C1)C2)C1Cc2ccccc2C1)C(=O)O : value?
output: 12.6

###

I'd be grateful if you could share measured Kb for these entries.
TEST TARGET: bradykinin receptors in Rat Uterus (Rattus norvegicus)
Construct: describes the Rat Uterus assay used to analyze the present compounds; from tissue; host or cells: isolated rat uterus
Sequence (P25023 1-396): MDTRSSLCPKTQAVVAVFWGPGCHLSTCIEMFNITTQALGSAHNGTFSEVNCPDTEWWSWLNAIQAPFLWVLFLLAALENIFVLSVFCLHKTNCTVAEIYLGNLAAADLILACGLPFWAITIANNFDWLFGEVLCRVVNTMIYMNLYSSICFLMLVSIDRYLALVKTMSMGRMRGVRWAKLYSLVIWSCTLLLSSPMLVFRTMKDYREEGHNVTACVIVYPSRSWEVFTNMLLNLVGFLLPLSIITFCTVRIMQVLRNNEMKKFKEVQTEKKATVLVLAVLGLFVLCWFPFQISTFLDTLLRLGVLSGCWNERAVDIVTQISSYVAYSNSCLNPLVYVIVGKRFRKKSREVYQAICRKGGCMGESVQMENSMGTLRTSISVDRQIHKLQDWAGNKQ
PROCEDURE TEXT: Rat Uterus functional assay
Format: cell-based
Reply with just the number (in nM).

input: Which Kb is reported for this molecule? N=C(N)NCCC[C@H](NC(=O)[C@@H]1C[C@@H]2CCCC[C@@H]2N1C(=O)[C@@H](Cc1c(F)c(F)c(F)c(F)c1F)NC(=O)[C@H](CO)NC(=O)[C@@H](NC(=O)CNC(=O)[C@@H]1C[C@@H](O)CN1C(=O)[C@@H]1CCCN1C(=O)[C@H](CCCNC(=N)N)NC(=O)[C@@H](CCCNC(=N)N)NC(=O)CN(CCCNC(=N)N)CCCNC(=N)N)C1Cc2ccccc2C1)C(=O)O
output: 5.01

input: Which Kb is reported for this molecule? N=C(N)NCCC[C@@H](N)C(=O)N[C@@H](CCCNC(=N)N)C(=O)N1CCC[C@H]1C(=O)N[C@@H](C(=O)NCC(=O)N[C@H](C(=O)N[C@@H](CO)C(=O)N[C@H](Cc1c(F)c(F)c(F)c(F)c1F)C(=O)N1[C@H](C(=O)N[C@@H](CCCNC(=N)N)C(=O)O)C[C@@H]2CCCC[C@@H]21)C1Cc2ccccc2C1)C1Cc2ccccc2C1
output: 39.8

input: Which Kb is reported for this molecule? N=C(N)NCCC[C@@H](N)C(=O)N[C@@H](CCCNC(=N)N)C(=O)N1CCC[C@H]1C(=O)N1C[C@H](O)C[C@H]1C(=O)NCC(=O)N[C@H](C(=O)N[C@@H](CO)C(=O)N[C@H](Cc1c(F)c(F)c(F)c(F)c1F)C(=O)N[C@@H](Cc1cccs1)C(=O)N[C@@H](CCCNC(=N)N)C(=O)O)C1Cc2ccccc2C1
output: 6.31

###

TEST TARGET: bradykinin receptors in Guinea Pig Ileum (Cavia porcellus, UniProt O70526)
Construct: describes the Guinea Pig Ileum assay used to analyze the present compounds; from tissue; host or cells: isolated guinea pig ileum
Sequence (O70526 1-372): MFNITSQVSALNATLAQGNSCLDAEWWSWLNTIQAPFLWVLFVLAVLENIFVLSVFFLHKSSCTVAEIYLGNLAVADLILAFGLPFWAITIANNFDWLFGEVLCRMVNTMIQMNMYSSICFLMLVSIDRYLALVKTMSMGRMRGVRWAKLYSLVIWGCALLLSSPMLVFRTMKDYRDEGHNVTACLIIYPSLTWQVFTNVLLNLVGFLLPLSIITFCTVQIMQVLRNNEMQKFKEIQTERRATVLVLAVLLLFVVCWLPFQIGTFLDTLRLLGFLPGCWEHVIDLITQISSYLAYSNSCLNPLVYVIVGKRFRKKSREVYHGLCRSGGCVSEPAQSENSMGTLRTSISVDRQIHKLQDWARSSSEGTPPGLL
PROCEDURE TEXT: Guinea Pig Ileum functional assay
Assay type: cell-based
MEASUREMENT CONTEXT: number in parenthesis is pA2, read-out: Ileum, pA2 (I=inhibitor) (converted)
I'd be grateful if you could share measured Kb for these entries.
Reply with just the number (in nM).

input: Which Kb is reported for this compound? N=C(N)NCCC[C@@H](N)C(=O)N[C@@H](CCCNC(=N)N)C(=O)N1CCC[C@H]1C(=O)N1C[C@H](O)C[C@H]1C(=O)NCC(=O)N[C@H](C(=O)N[C@@H](CO)C(=O)N[C@H](Cc1c(F)c(F)c(F)c(F)c1F)C(=O)N1[C@H](C(=O)N[C@@H](CCCNC(=N)N)C(=O)O)C[C@@H]2CCCC[C@@H]21)C1Cc2ccccc2C1 [Compound B10044]
output: 3.98

input: Which Kb is reported for this compound? N=C(N)NCCC[C@@H](N)C(=O)N[C@@H](CCCNC(=N)N)C(=O)N1CCC[C@H]1C(=O)N1C[C@H](O)C[C@H]1C(=O)NCC(=O)N[C@@H](Cc1cccs1)C(=O)N[C@@H](CO)C(=O)N[C@H](Cc1c(F)c(F)c(F)c(F)c1F)C(=O)N(CC(=O)N[C@@H](CCCNC(=N)N)C(=O)O)C1CCCCCC1 [Compound B10204]
output: 12.6

input: Which Kb is reported for this compound? N=C(N)NCCC[C@@H](N)C(=O)N[C@@H](CCCNC(=N)N)C(=O)N1CCC[C@H]1C(=O)N1C[C@H](O)C[C@H]1C(=O)NCC(=O)N[C@@H](Cc1c(F)c(F)c(F)c(F)c1F)C(=O)N[C@@H](CO)C(=O)N[C@@H](C(=O)N1[C@H](C(=O)N[C@@H](CCCNC(=N)N)C(=O)O)C[C@@H]2CCCC[C@@H]21)C1Cc2ccccc2C1 [Compound B10164]
output: 63.1

###

I'd be grateful if you could share measured Kb for these entries.
TEST TARGET: bradykinin receptors in Guinea Pig Ileum (Cavia porcellus)
Construct: describes the Guinea Pig Ileum assay used to analyze the present compounds; from tissue; host or cells: isolated guinea pig ileum
PROCEDURE TEXT: Guinea Pig Ileum functional assay
Assay type: cell-based
MEASUREMENT CONTEXT: number in parenthesis is pA2, read-out: Ileum, pA2 (I=inhibitor) (converted)
Reply with just the number (in nM).

input: Which Kb is reported for this compound? N=C(N)NCCC[C@@H](N)C(=O)N[C@@H](CCCNC(=N)N)C(=O)N1CCC[C@H]1C(=O)N1C[C@H](O)C[C@H]1C(=O)NCC(=O)N[C@H](C(=O)N[C@@H](CO)C(=O)N[C@H](Cc1c(F)c(F)c(F)c(F)c1F)C(=O)N(CC(=O)N[C@@H](CCCNC(=N)N)C(=O)O)C1CCCCCC1)C1Cc2ccccc2C1
output: 15.8

input: Which Kb is reported for this compound? N=C(N)NCCC[C@H](NC(=O)[C@H](CCCCN)NC(=O)[C@@H](N)CCCCN)C(=O)N1CCC[C@H]1C(=O)N1C[C@H](O)C[C@H]1C(=O)NCC(=O)N[C@H](C(=O)N[C@@H](CO)C(=O)N[C@H](Cc1c(F)c(F)c(F)c(F)c1F)C(=O)N1[C@H](C(=O)O)C[C@@H]2CCCC[C@@H]21)C1Cc2ccccc2C1
output: 1000

input: Which Kb is reported for this compound? N=C(N)NCCC[C@@H](N)C(=O)N[C@@H](CCCNC(=N)N)C(=O)N1CCC[C@H]1C(=O)N1C[C@H](O)C[C@H]1C(=O)NCC(=O)N[C@@H](Cc1c(F)c(F)c(F)c(F)c1F)C(=O)N[C@@H](CO)C(=O)N[C@@H](C(=O)N1[C@H](C(=O)N[C@@H](CCCNC(=N)N)C(=O)O)C[C@@H]2CCCC[C@@H]21)C1Cc2ccccc2C1 [Compound B10210]
output: 15.8
